Source: patent US20260232578A1

Property: Ki; scope: individual compounds
Biological target: D2S (Homo sapiens, UniProt P14416)
Sequence (P14416 1-414 isoform P14416-2): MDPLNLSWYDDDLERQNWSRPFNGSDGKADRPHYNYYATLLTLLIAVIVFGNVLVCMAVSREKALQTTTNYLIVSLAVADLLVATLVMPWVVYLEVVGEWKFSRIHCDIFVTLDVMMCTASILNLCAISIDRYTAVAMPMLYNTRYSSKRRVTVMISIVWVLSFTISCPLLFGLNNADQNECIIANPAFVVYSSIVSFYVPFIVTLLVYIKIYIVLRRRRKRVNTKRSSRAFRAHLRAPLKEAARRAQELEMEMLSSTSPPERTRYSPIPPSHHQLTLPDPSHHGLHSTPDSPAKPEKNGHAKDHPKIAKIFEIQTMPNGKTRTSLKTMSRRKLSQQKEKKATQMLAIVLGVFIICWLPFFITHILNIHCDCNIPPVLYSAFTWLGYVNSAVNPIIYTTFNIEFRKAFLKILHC
Assay: Equilibrium receptor binding, recombinant human receptor
measurementType: Ki (nM)

* CN(C)CCC=C1c2ccccc2C=Cc2ccccc21 | 120
* CNCCC=C1c2ccccc2C=Cc2ccccc21 | 410

* * *

Test: in vivo
Conditions: female, beagle, dog, iv, 0.14 mg/kg, Cl
Structures can show the parent of a compound that is named as a salt.
measurementType: clearance (mL/min/kg)

- CN(C)CCC=C1c2ccccc2C=Cc2ccccc21 [cyclobenzaprine HCl]: 52.3

* * *

Assay: in vivo
Conditions: female, beagle, dog, iv, 0.14 mg/kg, plasma level
measurementType: concentration at 6 h (ng/mL)

• CN(C)CCC=C1c2ccccc2C=Cc2ccccc21 [cyclobenzaprine] = 3.4

* * *

Reported pIC50 is given for each of the following compounds.
Biological target: histamine H1 receptor (Homo sapiens)
Construct: expressed in transfected cells
Sequence (P35367 whole entry): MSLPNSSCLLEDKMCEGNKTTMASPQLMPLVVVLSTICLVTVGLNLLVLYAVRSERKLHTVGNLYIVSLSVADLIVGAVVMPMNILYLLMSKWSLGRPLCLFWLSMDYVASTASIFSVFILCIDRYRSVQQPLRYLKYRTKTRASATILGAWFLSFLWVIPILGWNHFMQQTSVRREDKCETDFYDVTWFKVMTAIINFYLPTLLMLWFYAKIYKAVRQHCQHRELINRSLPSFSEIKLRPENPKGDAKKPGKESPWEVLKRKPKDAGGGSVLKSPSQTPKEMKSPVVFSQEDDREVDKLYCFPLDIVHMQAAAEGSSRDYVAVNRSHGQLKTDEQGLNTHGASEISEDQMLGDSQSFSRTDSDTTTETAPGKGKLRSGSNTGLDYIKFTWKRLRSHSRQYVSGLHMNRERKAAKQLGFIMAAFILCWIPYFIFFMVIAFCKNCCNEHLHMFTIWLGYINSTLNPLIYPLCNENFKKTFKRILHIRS
Experiment: G-protein-dependent signal transduction, intracellular Ca2+ mobilization
Assay type: cell-based
Settings: H1, Ca2+ mobilization; read-out: IC50, functional antagonist
pIC50: −log10 of the molar value.
measurementType: pIC50

- CN(C)CCC=C1c2ccccc2C=Cc2ccccc21: 8.28
- CNCCC=C1c2ccccc2C=Cc2ccccc21: 7.80

* * *

Target: adrenergic α1B receptor (Alpha1B) (Homo sapiens)
Sequence (P35368 whole entry): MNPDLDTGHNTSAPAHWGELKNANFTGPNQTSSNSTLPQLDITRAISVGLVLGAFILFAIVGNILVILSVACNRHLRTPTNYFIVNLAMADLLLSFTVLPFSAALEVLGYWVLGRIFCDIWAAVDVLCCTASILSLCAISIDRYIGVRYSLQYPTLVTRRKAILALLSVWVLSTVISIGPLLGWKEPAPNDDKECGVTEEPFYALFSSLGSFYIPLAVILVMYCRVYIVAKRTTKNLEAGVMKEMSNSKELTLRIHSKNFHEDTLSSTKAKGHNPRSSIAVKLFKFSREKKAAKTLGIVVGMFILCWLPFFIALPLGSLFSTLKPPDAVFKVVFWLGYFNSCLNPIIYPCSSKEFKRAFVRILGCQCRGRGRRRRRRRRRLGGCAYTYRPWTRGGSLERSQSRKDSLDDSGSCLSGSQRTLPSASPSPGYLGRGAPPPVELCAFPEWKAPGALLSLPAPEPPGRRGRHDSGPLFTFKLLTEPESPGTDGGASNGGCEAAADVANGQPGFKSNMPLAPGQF
Test: Equilibrium receptor binding, recombinant human receptor
pKi: −log10 of the molar value.
The following molecules are listed with their measured pKi values.
measurementType: pKi

* CNCCC=C1c2ccccc2C=Cc2ccccc21 | 7.96
* CN(C)CCC=C1c2ccccc2C=Cc2ccccc21 | 8.04

* * *

Ki values by entry
Biological target: dopamine D1 receptor (Homo sapiens, UniProt P21728)
Sequence (P21728 whole entry): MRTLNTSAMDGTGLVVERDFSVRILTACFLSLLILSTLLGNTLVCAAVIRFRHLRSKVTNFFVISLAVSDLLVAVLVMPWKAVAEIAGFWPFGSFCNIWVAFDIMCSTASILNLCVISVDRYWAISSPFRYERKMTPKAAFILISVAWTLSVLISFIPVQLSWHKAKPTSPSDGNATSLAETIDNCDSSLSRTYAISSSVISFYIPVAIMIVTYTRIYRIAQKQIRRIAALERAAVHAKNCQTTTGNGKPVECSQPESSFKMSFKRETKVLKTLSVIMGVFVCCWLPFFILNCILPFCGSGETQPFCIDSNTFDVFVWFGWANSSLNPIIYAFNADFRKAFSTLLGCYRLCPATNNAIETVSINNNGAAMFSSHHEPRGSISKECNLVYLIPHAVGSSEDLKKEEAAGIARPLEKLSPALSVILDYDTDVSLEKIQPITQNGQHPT
Test: Equilibrium receptor binding, recombinant human receptor
measurementType: Ki (nM)

- CN(C)CCC=C1c2ccccc2C=Cc2ccccc21 [cyclobenzaprine]: 12
- CNCCC=C1c2ccccc2C=Cc2ccccc21 [norcyclobenzaprine]: 57

* * *

Assay: in vivo
Conditions: female, beagle, dog, iv, 0.14 mg/kg, AUCt
Structures can show the parent of a compound that is named as a salt.
measurementType: AUC(0-t) (ng·h/mL)

- CN(C)CCC=C1c2ccccc2C=Cc2ccccc21 [cyclobenzaprine HCl]: 43.5

* * *

Assay: clinical
Conditions: human, in vivo, 2.4 mg, AUC0-12 h
measurementType: AUC(0-t)

* CN(C)CCC=C1c2ccccc2C=Cc2ccccc21 | ~50.3 ng·h/mL

* * *

Test: in vivo
Details: female, beagle, dog, po, 0.14 mg/kg, Vd (Vd/F)
Structures can show the parent of a compound that is named as a salt.
measurementType: Vd/F (L/kg)

* CN(C)CCC=C1c2ccccc2C=Cc2ccccc21 [cyclobenzaprine HCl] | 151

* * *

Assay: in vivo
Conditions: female, beagle, dog, iv, 0.14 mg/kg, Cyclobenzaprine plasma concentration
Description: The protocol was designed as outlined in Table 23. The method requires a lithium heparinized plasma sample volume of 200 μl. […] Concentrations of the samples are calculated using Watson® 7.2.0.03 directly from chromatograms after automatic integration by Analyst® 1.5.1 and expressed as ng/mL. […] Pharmacokinetic analysis is carried out using […]® (Version 4.3 (Thermo Electron Corporation)). […] The following pharmacokinetic parameters are calculated: […]
Where a name gives a salt, the structure may show the parent alone.
measurementType: concentration at 10 min (µg/mL)

• CN(C)CCC=C1c2ccccc2C=Cc2ccccc21 [cyclobenzaprine HCl] = 0.0211
